Could you please report measured koff for the items listed next?
# systemName: T1, recombinant human GM-CSF (human, UniProt P04141 18-144)
# T1 construct: also called rhGM-CSF; CSF2
# T1 sequence (P04141 18-144 limits assumed): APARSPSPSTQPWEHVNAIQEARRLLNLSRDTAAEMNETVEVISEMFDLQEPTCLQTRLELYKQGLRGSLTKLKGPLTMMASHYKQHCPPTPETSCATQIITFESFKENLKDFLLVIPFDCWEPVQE
# method: Biacore
Give bare numbers, in s⁻¹.

In the examples that follow, each entry is paired with its recorded koff.
binder	unitsText	koff
1D2 SDR mutant Y103N/V32R (antibody, IgG1, V domains shown) VH: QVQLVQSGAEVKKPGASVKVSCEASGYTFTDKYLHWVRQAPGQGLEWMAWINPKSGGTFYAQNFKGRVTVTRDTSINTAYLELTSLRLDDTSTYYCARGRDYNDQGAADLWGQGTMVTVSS VL: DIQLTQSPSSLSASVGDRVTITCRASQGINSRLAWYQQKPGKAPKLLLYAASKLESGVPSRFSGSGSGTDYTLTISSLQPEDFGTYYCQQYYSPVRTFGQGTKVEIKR	s⁻¹	0.0027
1D2 SDR mutant Y103R/V32R (antibody, IgG1, V domains shown) VH: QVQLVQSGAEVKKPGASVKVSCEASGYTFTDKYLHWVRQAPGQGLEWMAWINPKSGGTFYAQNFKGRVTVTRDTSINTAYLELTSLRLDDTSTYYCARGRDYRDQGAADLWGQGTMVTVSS VL: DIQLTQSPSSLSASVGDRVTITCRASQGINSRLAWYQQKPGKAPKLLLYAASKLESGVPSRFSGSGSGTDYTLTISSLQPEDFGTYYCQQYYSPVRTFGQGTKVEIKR	s⁻¹	0.00241
antibody 1D2 (antibody, V domains shown, also called 1D2-WT; WT) VH: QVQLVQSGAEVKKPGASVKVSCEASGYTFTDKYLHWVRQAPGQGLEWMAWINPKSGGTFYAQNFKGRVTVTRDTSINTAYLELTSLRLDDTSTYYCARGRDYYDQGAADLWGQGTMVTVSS VL: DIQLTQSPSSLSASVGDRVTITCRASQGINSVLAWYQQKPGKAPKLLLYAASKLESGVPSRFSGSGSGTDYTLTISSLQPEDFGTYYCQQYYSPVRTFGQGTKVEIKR	s⁻¹	0.000173

[ask] Suppose we examine the binder 1D2 SDR mutant HY103N (antibody, IgG1, V domains shown, also called X6 N) VH: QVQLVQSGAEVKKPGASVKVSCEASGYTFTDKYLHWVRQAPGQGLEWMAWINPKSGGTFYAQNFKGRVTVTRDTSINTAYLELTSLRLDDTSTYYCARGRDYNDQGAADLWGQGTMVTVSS VL: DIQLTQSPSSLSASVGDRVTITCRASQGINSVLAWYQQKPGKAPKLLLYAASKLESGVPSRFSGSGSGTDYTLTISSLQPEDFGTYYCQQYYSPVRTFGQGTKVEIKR ; what koff value has been reported?
[reply] 0.000669
